- Experiment Description: S. aureus quorum sensing inhibitors, primary screen, RNAIII-GFP reporter, flow cytometry (AID 527);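 further: 0% = AIP-stimulated control and 100% = unstimulated bacteria without AIP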
- Assay Conditions: S. aureus RN6390 RNAIII-GFP reporter, AIP-induced, flow cytometry 3 h; at 2 µM; active compounds read high
Among all 24,000 compounds or so, about 65 (0.3%) were called active. Many of the other results were omitted from the sample, so actives are more common in it than they were.
Result Type: inhibition (%)
Give the value, in units of %, as a plain number.

COc1ccccc1C(=O)n1nc(-c2ccccc2)nc1N
-0.9
CCOc1ccc(S(=O)(=O)n2ccnc2)c2ccccc12
3.6
Cc1cccc(N2CCN(Cc3c(C)n(C)n(-c4ccccc4)c3=O)CC2)c1C
-0.1
COc1cccc(N(C(=O)c2ccn[nH]2)C2(C(=O)Nc3c(C)cccc3C)CCCCC2)c1
5.5
Cc1cccc(C2c3c(n(C)c(=O)n(C)c3=O)N=C3c4ccccc4C(=O)C32)c1 (stereo not given)
1.5
COc1ccc(N2C(=O)c3cccc4cccc(c34)C2=O)nn1
-1.1
O=C(CCn1c(=O)[nH]c2ccccc2c1=O)NCCCN1CCN(c2cccc(Cl)c2)CC1
-4.8
Cc1cccc(C)c1NC(=O)N1CC=C(n2c(=O)[nH]c3ccccc32)CC1
8.3
CCOc1cc(/C=N/n2cnnc2)c(Br)cc1O
-1.6

Now look at this entry.
Report inhibition for `Cc1ccc(C)c(N2CCN(C(=O)CCCCn3c(=O)[nH]c4ccccc4c3=O)CC2)c1` please. 71.2
